Quick reference: IC50 of the listed items.
# targetEntity: CDK2 (human) (UniProt P24941)
# test: Cell-Based Assay
# conditionsUsed: hdf

Below, 4 compounds whose answers are already recorded.
[[record]]
compoundstructure = "NS(=O)(=O)c1ccc(NN=C2C(=O)Nc3ccc(-c4cnco4)cc32)cc1"
measurement = "1.1 to 5 µM"

[[record]]
compoundstructure = "O=C1Nc2ccc3ncsc3c2/C1=C/Nc1ccc2nn[nH]c2c1"
measurement = "> 5 µM"

[[record]]
compoundstructure = "CNS(=O)(=O)Cc1ccc(NN=C2C(=O)Nc3cc(C)c(O)c(C)c32)cc1"
measurement = "0.6 to 1 µM"

[[record]]
compoundstructure = "CNS(=O)(=O)Cc1ccc(NN=C2C(=O)Nc3ccc4ncccc4c32)cc1"
measurement = "> 5 µM"


Consider CS(=O)(=O)Cc1ccc(N/C=C2\C(=O)Nc3ccc4ncsc4c32)cc1 . Its measured IC50 is > 5 µM

* * *

# targetEntity: CDK2 (human)
# test: Cell-Based Assay
# conditionsUsed: rko
pIC50: −log10 of the molar value.
List of pIC50 values.

Here's what some known entries look like.
[[record]]
compoundstructure = "CNS(=O)(=O)Cc1ccc(NN=C2C(=O)Nc3ccc4ncccc4c32)cc1"
measurementkind = "pIC50"
measurement = "< 5.30"

[[record]]
compoundstructure = "NS(=O)(=O)c1ccc(NN=C2C(=O)Nc3ccc(-c4cnco4)cc32)cc1"
measurementkind = "pIC50"
measurement = "6.00 to 6.22"

[[record]]
compoundstructure = "CN(C)S(=O)(=O)c1ccc(N/C=C2\\C(=O)Nc3ccc(-c4cnco4)cc32)cc1"
measurementkind = "pIC50"
measurement = "5.30 to 5.96"

[[record]]
compoundstructure = "CS(=O)(=O)Cc1ccc(N/C=C2\\C(=O)Nc3ccc4ncsc4c32)cc1"
measurementkind = "pIC50"
measurement = "< 5.30"


CDK2 (human) data for CNS(=O)(=O)Cc1ccc(NN=C2C(=O)Nc3cc(C)c(O)c(C)c32)cc1 ; its pIC50: 6.30 to 7.00

* * *

# targetEntity: CDK2 (human) (UniProt P24941)
# test: Cell-Based Assay
# conditionsUsed: mes/sa
pIC50: −log10 of the molar value.
measurementKind: pIC50

A selection of reference data follows.
[[record]]
compoundstructure = "CS(=O)(=O)Cc1ccc(N/C=C2\\C(=O)Nc3ccc4ncsc4c32)cc1"
measurement = "5.30 to 5.96"

[[record]]
compoundstructure = "NS(=O)(=O)c1ccc(NN=C2C(=O)Nc3ccc(-c4cnco4)cc32)cc1"
measurement = "6.30 to 7.00"

[[record]]
compoundstructure = "CNS(=O)(=O)Cc1ccc(NN=C2C(=O)Nc3cc(C)c(O)c(C)c32)cc1"
measurement = "< 5.30"


Field: next molecule
Just so you know, measured pIC50 for CN(C)S(=O)(=O)c1ccc(N/C=C2\C(=O)Nc3ccc(-c4cnco4)cc32)cc1 came out at < 5.30

Each recorded value in this set is attributed to the Kinase Knowledgebase extract (Sharma et al. 2016).
